Reference for the values: patent US20210388087A1

Target: T1, CD3 epsilon homodimer protein (UniProt P07766 23-126)
T1 construct: also called CD3 (CD3 epsilon)
T1 sequence (P07766 23-126): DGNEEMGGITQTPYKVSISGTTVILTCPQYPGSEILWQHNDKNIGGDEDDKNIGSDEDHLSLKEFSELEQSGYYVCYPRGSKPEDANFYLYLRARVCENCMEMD
Test: SPR, antibody over immobilised CD3e homodimer;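 note: SPR at 25 °C with CD3 epsilon homodimer amine-coupled to a CM4 sensor chip and antibody flowed over as analyte in HBS-EP+ running buffer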
This section presents binders with their documented KD ratio to GLS3000 values.
// no unit string in output, number only

Observe how each entry below is paired with its result.
binder | KD ratio to GLS3000
CE115HA000/GLS3000 K50G (antibody, IgG1, name in Kabat numbering, V domains shown, one-arm IgG1) VH: QVQLVESGGGVVQPGRSLRLSCAASGFTFSNAWMHWVRQAPGKGLEWVAQIKAKSNNYATYYAESVKGRFTISRDDSKNSLYLQMNSLKTEDTAVYYCRYVHYGAYYGVDAWGQGTTVTVSS VL: DIVMTQSPLSLPVTPGEPASISCRSSQSLVHSNRNTYLHWYQQKPGQAPRLLIYGVSNRFSGVPDRFSGSGSGTDFTLKISRVEAEDVGVYYCGQGTQVPYTFGQGTKLEIK | 42.4
CE115HA000/GLS3000 S27eG (antibody, IgG1, name in Kabat numbering, V domains shown, one-arm IgG1) VH: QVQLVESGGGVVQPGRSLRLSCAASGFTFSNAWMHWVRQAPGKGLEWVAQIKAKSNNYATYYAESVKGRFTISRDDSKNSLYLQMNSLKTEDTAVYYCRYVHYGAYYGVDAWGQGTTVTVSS VL: DIVMTQSPLSLPVTPGEPASISCRSSQSLVHGNRNTYLHWYQQKPGQAPRLLIYKVSNRFSGVPDRFSGSGSGTDFTLKISRVEAEDVGVYYCGQGTQVPYTFGQGTKLEIK | 1.03

Proceed to the following item.
Give me measured KD ratio to GLS3000, please, for this binder: CE115HA000/GLS3000 S25A (antibody, IgG1, name in Kabat numbering, V domains shown, one-arm IgG1) VH: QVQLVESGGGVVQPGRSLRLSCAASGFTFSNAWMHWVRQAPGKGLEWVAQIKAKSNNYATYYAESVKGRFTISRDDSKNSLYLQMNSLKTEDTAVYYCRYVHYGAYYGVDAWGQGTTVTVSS VL: DIVMTQSPLSLPVTPGEPASISCRASQSLVHSNRNTYLHWYQQKPGQAPRLLIYKVSNRFSGVPDRFSGSGSGTDFTLKISRVEAEDVGVYYCGQGTQVPYTFGQGTKLEIK
0.73
